system: CCRF-CEM; test: NCI tumour cell line growth inhibition, 48 h
The source made the active and inactive calls. Cut-off read from the data, not from the text of the source: active = GI50 up to about 1.1 µM and inactive = higher. Where a SMILES comes first, the peptide text is derived from it. Square brackets hold non-standard residues; d marks the D form. Peptide text beside a SMILES is read from it. [ ]: non-standard residue; d: D form. The star is where a group is joined. * marks the point of attachment. ξ: configuration not given here. ξW = NC(Cc1c[nH]c2ccccc12)C(=O)O; NMeF = CN[CH](Cc1ccccc1)C(=O)O; ξNMe2Val = CC(C)C(C(=O)*)N(C)C; X29 = O=C(O)[C@H]1CCC[C@H]1N*; NMeV = CN[CH](C(=O)O)C(C)C; ξF = NC(Cc1ccccc1)C(=O)O; Boc = CC(C)(C)OC(=O)*; ξK = NCCCCC(N)C(=O)O; ξT = CC(O)C(N)C(=O)O; OtBu = CC(C)(C)O*; tBu = CC(C)(C)*
Labels: true (1) (active), false (0) (inactive)

INSERT INTO assay_data (compound, qualitative_label) VALUES
  ('O=C1N/C(=N\N=C\c2ccccc2)C(c2ccccc2)O1 (stereo not given)', 'false (0)'),
  ('COc1ccc(N2C(Cl)C(=O)C2c2c[nH]c3ccccc23)cc1 (stereo not given)', 'false (0)'),
  ('COc1ccc(/N=N/C(=O)NC(CC(C)C)C(=O)NC(C)C(=O)O)cc1 (stereo not given)', 'false (0)'),
  ('Cc1ncc([N+](=O)[O-])n1CCNCCCCn1ccnc1[N+](=O)[O-]', 'false (0)'),
  ('CC(C)N1CCC2(CC1)NNc1ncccc1-n1cccc12', 'false (0)'),
  ('CCOC(=O)CNC(=O)OCc1ccccc1', 'false (0)'),
  ('O=C1c2ccccc2C2C1N2C(=O)C(F)(F)F (stereo not given)', 'false (0)'),
  ('COc1ccc(-c2c(C#N)c(-c3ccc(C)cc3)n(NS(=O)(=O)c3ccccc3)c(=O)c2C#N)cc1', 'false (0)'),
  ('CCOC(=O)c1cc(C2CCN(c3ccccc3)C2=O)c(C(=O)/C=C(/C)O)[nH]1 (stereo not given)', 'false (0)'),
  ('Oc1cc(-c2ccc3ccccc3c2)nc2ncccc12', 'false (0)'),
  ('O=C(O)C1C2c3ccccc3C(c3ccccc32)C1C(=O)NCC1CC1 (stereo not given)', 'false (0)'),
  ('N#C[C@H](c1nc2ccccc2s1)c1nc2ccccc2nc1Cl', 'false (0)'),
  ('C[C@@H](CC(O)C(O)C(C)(C)O)C1CCC23CC12CCC1[C@@]2(C)CCC(=O)C(C)(C)C2CC(OC2OC(CO)C(O)C(O)C2O)[C@]13C (stereo not given in full)', 'false (0)'),
  ('Cc1cccc(/C=C2\CCCCCC2=O)c1', 'false (0)'),
  ('O=c1[nH]c(=O)n(COCCO)cc1-c1ccccc1', 'false (0)'),
  ('NC(=O)N/N=C(\CC1OC(=O)c2ccccc21)c1ccc([N+](=O)[O-])cc1 (stereo not given)', 'false (0)'),
  ('COC(=O)C1Cc2c(n(Cc3ccccc3)c3ccccc23)C(CCC(=O)O)N1C(C)C (stereo not given)', 'false (0)'),
  ('Cc1cc(N)c2ccccc2[n+]1CCCCCCCCCCNc1cc(C)[n+](CCCCCCCCCC[n+]2c(C)cc(N)c3ccccc32)c2ccccc12', 'true (1)'),
  ('C[n+]1ccc2/c(=C\C#N)c3ccccc3n21', 'false (0)'),
  ('COC1=C2C[C@@H](C)C[C@@H](OC)[C@@H](O)[C@H](C)/C=C(\C)[C@@H](OC(N)=O)[C@H](OC)/C=C\C=C(/C)C(=O)NC(=CC1=O)C2=O', 'true (1)'),
  ('CC(C)C(C(=O)N(C)C(Cc1ccccc1)C(=O)N(C)C(C(=O)N(C)C(C(=O)N1CCCC1C(=O)OC(C)(C)C)C(C)C)C(C)C)N(C)C (stereo not given) (ξNMe2Val-[NMeF][NMeV][NMeV]P-OtBu; configuration not given here)', 'false (0)'),
  ('CC(C)(C)C(=O)C(C(=O)C(C)(C)C)C(=O)C(C)(C)C', 'false (0)'),
  ('O=C(O)/C=C/c1nc2ccccc2c(=O)o1', 'false (0)'),
  ('CC(OC(C)(C)C)C(NC(=O)C(CCCCNC(=O)OC(C)(C)C)NC(=O)C(Cc1c[nH]c2ccccc12)NC(=O)C(N)Cc1ccccc1)C(=O)NC(Cc1ccccc1)C(=O)N[C@@H]1CCC[C@@H]1C(=O)O (stereo not given in full) (H-[ξF][ξW][ξK](Boc)[ξT](tBu)[ξF]-X29)', 'false (0)'),
  ('CCCCC(=O)Nc1ccc2c(C)cc(-c3ccc(-c4cc(-c5ccc(C)cc5)cc(-c5ccc(-c6cc(C)c7ccc(NC(=O)CCCC)nc7n6)cc5)n4)cc3)nc2n1', 'false (0)');
